Biological target: Dihydrofolate reductase (Lactobacillus casei)
Sequence (P00381 whole entry): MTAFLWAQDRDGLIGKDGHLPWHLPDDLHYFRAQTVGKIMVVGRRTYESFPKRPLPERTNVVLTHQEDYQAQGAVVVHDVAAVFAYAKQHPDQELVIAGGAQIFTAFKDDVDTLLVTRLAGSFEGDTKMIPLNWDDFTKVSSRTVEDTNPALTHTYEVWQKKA
Details: Lacticaseibacillus casei
Description: Tested for pK value of histidine residue(His-28) of Dihydrofolate reductase from Lactobacillus casei
Parameter threshold = 7. Response is Met when pK meets or exceeds it, else Not met.

> print(dat)
                                   compound  class
1  COc1cc(Cc2cnc(N)nc2N)cc(OCCCC(CCC(=O)O)C(=O)O)c1Br (stereo not given)    Met

Consider the record given below.
Identify whether the reported pK of the following compound is 7 or greater: `COc1cc(Cc2cnc(N)nc2N)cc(OCCC(=O)NCC(=O)O)c1Br`
Not met

====

Molecular target: Dihydrofolate reductase (Lactobacillus casei)
Assay: Inhibition constant of compound against Lactobacillus casei Dihydrofolate reductase
Design: species or system Lacticaseibacillus casei
pKi reference
The quantity pKi is defined as the negative base-10 logarithm of the molar concentration.

> print(dat)
                                   molecule  measured.property  endpoint.result
1  COc1cc(Cc2cnc(N)nc2N)cc(OCCC(=O)NCC(=O)O)c1Br                pKi             8.39
2  COc1cc(Cc2cnc(N)nc2N)cc(OCCCCC(=O)O)c1Br                pKi             9.70
3   COc1cc(Cc2cnc(N)nc2N)cc(OCCCC(=O)O)c1Br                pKi             9.05
4  COc1cc(Cc2cnc(N)nc2N)cc(OCCC(=O)NC(CCC(=O)O)C(=O)O)c1Br (configuration not stated)                pKi             8.77
5  COc1cc(Cc2cnc(N)nc2N)cc(OCCCCCC(=O)O)c1Br                pKi             9.40

For `COc1cc(Cc2cnc(N)nc2N)cc(OCCCCCCC(=O)O)c1Br` , what is its reported pKi?
9.22

====

pK reference
Target: Dihydrofolate reductase (Lactobacillus casei)
Conditions: Lacticaseibacillus casei
// response body must contain only the number

Illustrative cases are given below, each with its answer.
> print(dat)
                                   compound  measured.property  endpoint.result
1  COc1cc(Cc2cnc(N)nc2N)cc(OCCCCCCC(=O)O)c1Br                 pK              6.8
2  COc1cc(Cc2cnc(N)nc2N)cc(OCCC(=O)NC(CCC(=O)O)C(=O)O)c1Br (stereo not drawn)                 pK             7.12

Now examine the next entry.
For `COc1cc(Cc2cnc(N)nc2N)cc(OCCCCC(=O)O)c1Br` , what is its reported pK?
6.83

These data points were gathered from ChEMBL document CHEMBL1122542.
